study target: Ubiquitin carboxyl-terminal hydrolase 10 (Homo sapiens) (UniProt Q14694)
Sequence (Q14694 whole entry, looked up): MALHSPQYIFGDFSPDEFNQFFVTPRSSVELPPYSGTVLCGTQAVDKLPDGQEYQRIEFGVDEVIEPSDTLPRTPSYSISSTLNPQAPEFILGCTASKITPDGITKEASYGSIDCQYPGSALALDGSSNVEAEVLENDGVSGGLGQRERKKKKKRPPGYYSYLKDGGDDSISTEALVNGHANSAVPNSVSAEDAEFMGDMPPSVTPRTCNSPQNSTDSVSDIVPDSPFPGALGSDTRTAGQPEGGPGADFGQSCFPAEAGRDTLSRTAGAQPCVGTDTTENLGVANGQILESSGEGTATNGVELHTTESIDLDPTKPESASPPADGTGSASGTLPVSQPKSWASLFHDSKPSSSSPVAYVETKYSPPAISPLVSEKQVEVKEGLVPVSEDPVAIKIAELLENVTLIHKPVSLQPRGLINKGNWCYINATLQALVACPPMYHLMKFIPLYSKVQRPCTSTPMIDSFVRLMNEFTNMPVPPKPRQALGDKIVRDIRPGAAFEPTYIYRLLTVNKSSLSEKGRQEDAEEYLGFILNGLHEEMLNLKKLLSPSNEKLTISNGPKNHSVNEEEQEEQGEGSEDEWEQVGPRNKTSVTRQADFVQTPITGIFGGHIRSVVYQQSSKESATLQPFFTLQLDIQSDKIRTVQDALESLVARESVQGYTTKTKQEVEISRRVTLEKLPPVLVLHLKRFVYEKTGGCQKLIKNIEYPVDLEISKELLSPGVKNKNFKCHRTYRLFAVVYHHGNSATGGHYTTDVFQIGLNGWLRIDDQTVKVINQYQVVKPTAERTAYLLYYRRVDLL
test details: ubiquitin-specific protease 10 DUB inhibitors, concentration-effect, biochemical, verification of primary screen actives (AID 1645863);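 also: potency values describe inhibition of USP10 cleavage of a fluorogenic ubiquitin substrate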
conditions: USP10 deubiquitinase enzymatic assay
The source made the active and inactive calls. No rule for the calls is given here.
Please answer using one outcome listed in active, inactive

Known results for molecules:
COc1ccc(N/C=C/c2onc(C)c2[N+](=O)[O-])c(OC)c1
inactive
O=C(Cn1c(=O)n(CCC(=O)N2CCc3ccccc3C2)c(=O)c2ccccc21)NCc1ccccc1Cl
inactive
Cc1cccc(OCCn2c(CCNC(=O)C3CCCCC3)nc3ccccc32)c1
active

[in] Per the assay record, what outcome was assigned to `N#Cc1ccc(NC(=O)Nc2cccn(Cc3c(F)cccc3Cl)c2=O)cc1` ?
[out] inactive

[in] Record request — test call for `CCc1[nH]c(=O)cc2cc(OC)c(OC)cc12`
[out] active

Taken from PubChem BioAssay AID1645863.
